TARGET: Human Cot (Homo sapiens (Human), UniProt P41279)
Sequence (P41279 30-397): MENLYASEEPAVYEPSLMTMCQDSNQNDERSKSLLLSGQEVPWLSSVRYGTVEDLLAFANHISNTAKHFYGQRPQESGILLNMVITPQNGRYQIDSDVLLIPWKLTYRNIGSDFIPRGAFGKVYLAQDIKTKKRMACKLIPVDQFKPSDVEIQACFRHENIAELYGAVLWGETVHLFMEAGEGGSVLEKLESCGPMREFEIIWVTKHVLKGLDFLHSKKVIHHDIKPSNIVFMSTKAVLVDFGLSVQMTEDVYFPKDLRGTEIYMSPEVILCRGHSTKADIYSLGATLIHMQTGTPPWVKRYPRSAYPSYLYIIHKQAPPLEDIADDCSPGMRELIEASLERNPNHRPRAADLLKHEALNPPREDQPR
PROTOCOL: High Throughput Cot Biochemical Assay
PROTOCOL_CONDITIONS: IC50 HTRF, Cot HTRF (TR-FRET KinEASE) biochemical assay, 400 μM ATP
ASSAY_ENDPOINT: IC50

1) Cc1nc(F)ccc1[C@H](Nc1cc(Cl)c2ncc(C#N)c(Nc3cnc(F)c(F)c3)c2c1)c1nnn(C2(C(F)F)CC2)c1F [Example 953] | 36 nM
2) Cn1ccc2c([C@H](Nc3cc(C#N)c4ncc(C#N)c(NCC(C)(C)C)c4c3)c3cn(C4(CF)CC4)nn3)cccc2c1=O [Example 878] | 2 nM
3) Cc1nc(F)ccc1[C@H](Nc1cc(C#N)c2ncc(C#N)c(NCC(C)(C)C(F)(F)F)c2c1)c1nnn(C23CC(C2)C3)c1F [Example 861] | 7 nM
4) COc1c([C@@H](Nc2cc(Cl)c3ncc(C#N)c(NCC(C)(C)C)c3c2)c2ccc(F)nc2C)nnn1C12CC(C1)C2 [Example 968] | 2 nM
5) Cc1nc(F)ccc1[C@H](Nc1cc(C#N)c2ncc(C#N)c(NCC34CC(C3)C4)c2c1)c1cn(C2(C(F)(F)F)CC2)nn1 [Example 848] | 31 nM
6) CC(C)(CNc1c(C#N)cnc2c(C#N)cc(N[C@H](c3cn(C4(C(F)F)CC4)nn3)c3ccc(F)c4ncccc34)cc12)C(F)(F)F [Example 815] | 3 nM
